B1: Histone-lysine N-methyltransferase SETD2, residues 2382 to 2430; numbered along this chain, Q9BYW2 (parent)
chain: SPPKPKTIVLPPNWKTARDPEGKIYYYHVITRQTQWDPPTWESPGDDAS

variants of: B1; assay: abundance fitness (aPCA) (normalised: wild type 0, dead -1); higher = more abundant; growth selection in yeast, the domain comes from the species named; settings: Homo sapiens
metric-name: abundance fitness
Numbers only.

Some solved entries appear below for comparison.
{"columns": ["macromolecule-sequence", "measured"],
 "data": [
  ["SPPKPKTIVLPPNWKTPRDPEGKIYYYHVITRQTQWDPPTWESPGDDAS", -0.747],
  ["SPPKPKTIVLPPNWKTARDPEGKIHYYHVITRQTQWDPPTWESPGDDAS", -0.419],
  ["SPPKPKTIVLPPNWKTARDPEGKIYYYHVITRQHQWDPPTWESPGDDAS", -0.059],
  ["SPPKPKTIVLPPNWKTARDPEGKIYMYHVITRQTQWDPPTWESPGDDAS", -0.694],
  ["SPPKPKMIVLPPNWKTARDPEGKIYYYHVITRQTQWDPPTWESPGDDAS", 0.026]
]}

# return abundance fitness for each item in the list
1. SPPKPKTIVLPPNWKTARDPEGKIYYYHVITRQTQWDPPTVESPGDDAS
2. SHPKPKTIVLPPNWKTARDPEGKIYYYHVITRQTQWDPPTWESPGDDAS
3. SPPKPKTIVLPPNWKTARDPEGKIYYYMVITRQTQWDPPTWESPGDDAS

[reply]
1: 0.077; 2: 0.314; 3: -1.01
